Test system: ASAU001 (laboratory strain of S. aureus, ATCC29213)
test_description: MIC broth microdilution, ASAU001
Format: cell-based
reported_conditions: Staphylococcus aureus, ATCC29213, read-out: MIC ASAU001
Answer each item with its documented MIC.

Consider the reported MIC for these compounds:
>  <compound>
COC(C)[C@H](NC(=O)c1ccc(/C=C/C#Cc2ccc(CN3CCOCC3)cc2)cc1)C(=O)NO (stereo partly shown)

>  <MIC>
> 64 µg/mL

$$$$
>  <compound>
C[C@@H](N)[C@H](NC(=O)c1ccc(C#CC#Cc2cnc(N)s2)cc1)C(=O)NO

>  <MIC>
16 to 64 µg/mL

$$$$
>  <compound>
C[C@@H](O)[C@H](NC(=O)c1ccc(/C=C/C#Cc2ccc(CN3CCOCC3)cc2)cc1)C(=O)NO [Example 30-12a]

>  <MIC>
> 64 µg/mL

$$$$
>  <compound>
C[C@@H](N)[C@H](NC(=O)c1ccc(C#Cc2cncnc2)cc1)C(=O)NO

>  <MIC>
2 to 16 µg/mL

$$$$
>  <compound>
CC(C)(N)[C@H](NC(=O)c1ccc(C#Cc2ccc(CN3CCS(=O)(=O)CC3)cc2)cc1)C(=O)NO

>  <MIC>
16 to 64 µg/mL

$$$$

Count: 2. Required value per item: MIC.
1. C[C@H](O)[C@H](NC(=O)c1ccc(C#C/C=C/c2ccc(CO)cc2)cc1)C(=O)NO
2. O=C(NO)[C@H](COCc1ccccc1)NS(=O)(=O)c1ccc(C#Cc2ccc(CN3CCOCC3)cc2)cc1

1. 16 to 64 µg/mL
2. > 64 µg/mL
